Target: UniProt:P49336
pIC50: −log10 of the molar value.
quantity: pIC50

input: Tell me its pIC50 on UniProt:P49336: CN1CCN(C(=O)c2ccc3cc(CCNc4ncnc5ccc(C#N)cc45)ccc3c2)CC1 [SNX2-1-165]
output: 7.30 to 7.62

---

Molecular target: CDK8 (Homo sapiens)
Sequence (P49336 whole entry): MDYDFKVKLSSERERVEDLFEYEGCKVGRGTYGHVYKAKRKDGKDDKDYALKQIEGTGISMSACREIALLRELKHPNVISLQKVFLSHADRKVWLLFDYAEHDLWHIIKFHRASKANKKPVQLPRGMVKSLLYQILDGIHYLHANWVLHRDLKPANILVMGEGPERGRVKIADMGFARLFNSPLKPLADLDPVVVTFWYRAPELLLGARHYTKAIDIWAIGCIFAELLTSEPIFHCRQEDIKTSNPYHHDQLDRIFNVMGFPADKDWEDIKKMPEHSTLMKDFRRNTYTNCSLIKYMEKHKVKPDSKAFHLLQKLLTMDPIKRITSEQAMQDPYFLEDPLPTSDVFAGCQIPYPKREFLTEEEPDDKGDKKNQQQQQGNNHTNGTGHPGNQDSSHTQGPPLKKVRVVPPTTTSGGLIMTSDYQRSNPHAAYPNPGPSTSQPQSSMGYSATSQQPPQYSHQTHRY
quantity: pKd
// pKd: -log10(molar conc.)

input: Tell me its pKd on CDK8 (Homo sapiens): CN1CCN(C(=O)c2ccc3cc(CCNc4ncnc5ccc(C#N)cc45)ccc3c2)CC1
output: 6.85

---

Experiment: Water solubility
Assay type: physicochemical
Details: 40° C., 30 min, no pellet after centrifugation
quantity: Water Solubility

input: Return Water Solubility (reported value) for this compound: CN1CCN(C(=O)c2ccc3cc(CCNc4ncnc5ccc(C#N)cc45)ccc3c2)CC1
output: ≥ 50 mM

input: Return Water Solubility (reported value) for this compound: CN1CCN(C(=O)c2ccc(CCNc3ncnc4ccc(C#N)cc34)cc2)CC1
output: Soluble at 10 mM

input: Return Water Solubility (reported value) for this compound: CN(C)CCNC(=O)c1ccc(CCNc2ncnc3ccc(C#N)cc23)cc1
output: Soluble at 10 mM

input: Return Water Solubility (reported value) for this compound: COCCNC(=O)c1ccc(CCNc2ncnc3ccc(C#N)cc23)cc1
output: Soluble at 10 mM
